- Assayed Target: GABA-A receptor; alpha-3/beta-3/gamma-2 (Homo sapiens, UniProt P18507+P28472+P34903)
- Sequence (P18507 whole entry): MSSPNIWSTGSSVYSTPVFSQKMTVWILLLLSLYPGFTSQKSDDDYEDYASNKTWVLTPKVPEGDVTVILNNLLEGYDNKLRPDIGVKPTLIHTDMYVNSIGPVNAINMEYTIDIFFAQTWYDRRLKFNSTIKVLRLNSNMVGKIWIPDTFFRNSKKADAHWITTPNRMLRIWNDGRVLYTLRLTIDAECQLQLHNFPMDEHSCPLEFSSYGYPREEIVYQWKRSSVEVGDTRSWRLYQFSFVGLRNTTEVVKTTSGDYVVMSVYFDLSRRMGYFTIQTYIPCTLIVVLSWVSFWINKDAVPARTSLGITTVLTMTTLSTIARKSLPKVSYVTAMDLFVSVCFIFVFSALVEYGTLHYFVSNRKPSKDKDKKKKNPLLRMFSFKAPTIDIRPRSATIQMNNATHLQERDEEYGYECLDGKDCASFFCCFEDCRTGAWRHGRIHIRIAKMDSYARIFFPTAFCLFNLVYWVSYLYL
- Sequence (P28472 whole entry): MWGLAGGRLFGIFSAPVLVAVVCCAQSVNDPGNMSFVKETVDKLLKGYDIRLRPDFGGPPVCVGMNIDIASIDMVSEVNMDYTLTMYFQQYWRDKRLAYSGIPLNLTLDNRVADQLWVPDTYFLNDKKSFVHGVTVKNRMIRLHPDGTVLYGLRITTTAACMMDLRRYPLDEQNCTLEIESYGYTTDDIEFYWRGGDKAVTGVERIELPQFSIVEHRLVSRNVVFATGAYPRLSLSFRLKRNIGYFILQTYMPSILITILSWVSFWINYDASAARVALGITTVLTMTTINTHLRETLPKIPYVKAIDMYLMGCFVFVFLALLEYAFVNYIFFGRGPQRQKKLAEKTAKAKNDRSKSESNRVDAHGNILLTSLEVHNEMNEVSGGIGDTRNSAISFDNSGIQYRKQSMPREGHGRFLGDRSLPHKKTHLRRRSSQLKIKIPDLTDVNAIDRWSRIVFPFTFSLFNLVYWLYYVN
- Sequence (P34903 whole entry): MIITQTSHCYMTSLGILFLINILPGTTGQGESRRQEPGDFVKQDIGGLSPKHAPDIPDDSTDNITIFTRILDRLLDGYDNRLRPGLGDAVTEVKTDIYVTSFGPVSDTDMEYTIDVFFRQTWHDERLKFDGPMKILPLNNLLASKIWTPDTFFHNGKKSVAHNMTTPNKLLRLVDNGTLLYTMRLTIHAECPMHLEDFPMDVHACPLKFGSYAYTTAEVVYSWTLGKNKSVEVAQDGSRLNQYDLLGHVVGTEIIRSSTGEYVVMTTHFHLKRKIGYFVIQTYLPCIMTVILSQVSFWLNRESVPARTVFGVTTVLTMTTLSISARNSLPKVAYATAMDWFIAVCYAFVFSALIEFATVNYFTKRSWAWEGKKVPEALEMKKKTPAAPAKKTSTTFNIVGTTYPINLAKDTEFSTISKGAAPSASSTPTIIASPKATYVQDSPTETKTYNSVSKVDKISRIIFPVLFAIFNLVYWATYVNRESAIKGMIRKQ
- Test: Displacement of [3H]- Ro 15-1788 binding from human GABA-A receptor alpha-3-beta-3-gamma-2 subunits
Label key: condition met means Ki under 0.02 µM; condition not met means Ki of 0.02 µM or more.

Look over these answered cases.
{"Compound String": "CCc1c(C(=O)OC)ncc2[nH]c3cc(OC)c(OC)cc3c12", "Answer Label": "condition met"}
{"Compound String": "CSc1sc(-c2cccnc2)c2c1C(=O)CC(C)(C)C2", "Answer Label": "condition not met"}
{"Compound String": "CC1(C)CC(=O)c2c(SCCO)sc(-c3ccccn3)c2C1", "Answer Label": "condition met"}
{"Compound String": "CSc1sc(-c2cc[nH]n2)c2c1C(=O)CC(C)(C)C2", "Answer Label": "condition not met"}
{"Compound String": "CC1(C)CC(=O)c2c(SSc3nccs3)sc(-c3cc[nH]n3)c2C1", "Answer Label": "condition not met"}

(Q) Bench note: check whether "CC(C)Sc1sc(-c2cc[nH]n2)c2c1C(=O)CC(C)(C)C2" shows Ki below 0.02 µM
(A) condition met

(Q) Bench note: check whether "CSc1sc(-c2nccs2)c2c1C(=O)CC(C)(C)C2" shows Ki below 0.02 µM
(A) condition not met

###

- Assayed Target: GABA-A receptor; alpha-3/beta-3/gamma-2 (Homo sapiens, UniProt P18507+P28472+P34903)
- Test: Displacement of [3H]- Ro 15-1788 binding from human GABA-A receptor alpha-3-beta-3-gamma-2 subunits
Recorded Endpoint: Ki (nM)
Answers are plain numbers, in nM.

{"Compound String": "CC1(C)CC(=O)c2c(SCCO)sc(-c3nccs3)c2C1", "Recorded Endpoint": "Ki", "Reported Value": 20}
{"Compound String": "CSc1sc(-c2ccccn2)c2c1C(=O)CC(C)(C)C2", "Recorded Endpoint": "Ki", "Reported Value": 25}
{"Compound String": "CC1(C)CC(=O)c2c(SCCO)sc(-c3cc[nH]n3)c2C1", "Recorded Endpoint": "Ki", "Reported Value": 24}
{"Compound String": "CCSc1sc(-c2cc[nH]n2)c2c1C(=O)CC(C)(C)C2", "Recorded Endpoint": "Ki", "Reported Value": 16}

Let's switch to this compound now.
(Q) Ki for "CSc1sc(-c2ccncc2)c2c1C(=O)CC(C)(C)C2" ?
(A) 35
